Reported melting point is given for each of the following compounds.

- structure smiles: "O=C(NNS(=O)(=O)c1ccc(F)c(Cl)c1)c1ccc2ncccc2c1"
  melting point: "241.9 to 242.6 °C"
- structure smiles: "CN(C)c1ccc(S(=O)(=O)NNC(=O)c2ccc3oc4ccccc4c3c2)cc1.Cl"
  melting point: "187.6 to 188.8 °C"
- structure smiles: "O=C(NNS(=O)(=O)c1ccc(F)c(Cl)c1)c1cnc2ccccc2c1"
  melting point: "245 to 245.7 °C"
- structure smiles: "Cc1ccccc1S(=O)(=O)NNC(=O)c1cc2cc(Cl)ccc2o1"
  melting point: "190.5 to 192 °C"

Read the next record carefully.
melting point reported for this compound `Cc1c(Cl)cccc1S(=O)(=O)NNC(=O)c1cc2cc(Cl)ccc2o1` : 198.2 to 198.5 °C

* * *

Molecular target: rat BCAT cytosolic form (Rattus norvegicus, UniProt P54690)
Sequence (P54690 1-411): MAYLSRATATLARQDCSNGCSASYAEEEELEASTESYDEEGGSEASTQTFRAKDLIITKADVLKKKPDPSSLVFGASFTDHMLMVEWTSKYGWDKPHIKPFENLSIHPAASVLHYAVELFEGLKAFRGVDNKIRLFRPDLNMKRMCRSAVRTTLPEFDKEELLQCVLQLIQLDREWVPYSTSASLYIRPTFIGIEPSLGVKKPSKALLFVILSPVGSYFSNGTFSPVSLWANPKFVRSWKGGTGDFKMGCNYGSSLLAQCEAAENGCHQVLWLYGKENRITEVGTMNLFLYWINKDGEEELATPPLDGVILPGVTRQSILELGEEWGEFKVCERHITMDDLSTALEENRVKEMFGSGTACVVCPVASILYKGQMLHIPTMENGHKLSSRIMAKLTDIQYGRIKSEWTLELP
Assay: In vitro coupled enzyme assay (glutamate dehydrogenase, NADH formation), rat BCATc
Conditions: recombinant rat BCATc, 37° C., 25 mM phosphate buffer pH 7.8; several values in a cell = repeat determinations; read-out: RrBCATc
Grouping rule (IC50): label 0: < 0.4 µM; label 1: ≥ 0.4 µM and < 2 µM; label 2: ≥ 2 µM

- structure smiles: "Cc1cccc(S(=O)(=O)NNC(=O)c2cc3cc(Cl)cc(Cl)c3o2)c1"
  label value: "label 1"
- structure smiles: "COc1cccc(S(=O)(=O)NNC(=O)c2ccc3ccccc3c2)c1"
  label value: "label 1"

Q) // return the class label for `O=C(NNS(=O)(=O)c1cccc(Cl)c1)c1ccc2ccccc2c1`
A) label 1

Q) // return the class label for `COc1ccc(Cl)cc1S(=O)(=O)NNC(=O)c1cc2cccc(OC)c2o1`
A) label 2

* * *

target: rat BCAT cytosolic form (Rattus norvegicus); assay: In vitro coupled enzyme assay (glutamate dehydrogenase, NADH formation), rat BCATc; details: recombinant rat BCATc, 37° C., 25 mM phosphate buffer pH 7.8; several values in a cell = repeat determinations; read-out: RrBCATc
measured quantity: IC50 (nM)
Report as a plain number; the unit nM is understood.

These recorded examples may help you get a feel for the data.
- compound: "Cc1ccc2oc(C(=O)NNS(=O)(=O)c3ccccc3C(F)(F)F)cc2c1"
  IC50, nM: 220
- compound: "O=C(NNS(=O)(=O)c1cccc(Cl)c1Cl)c1ccc2ccccc2c1"
  IC50, nM: 2000
- compound: "COc1cccc(S(=O)(=O)NNC(=O)c2ccc3oc4ccccc4c3c2)c1"
  IC50, nM: 210
- compound: "CCc1ccc(S(=O)(=O)NNC(=O)c2ccc3ccccc3c2)cc1"
  IC50, nM: 11600
- compound: "O=C(NNS(=O)(=O)c1cc(Cl)cc(Cl)c1)c1cc2cc(Cl)ccc2o1"
  IC50, nM: 810
- compound: "O=C(NNS(=O)(=O)c1ccc(F)cc1)c1ccc2oc3ccccc3c2c1"
  IC50, nM: 1200
- compound: "O=C(NNS(=O)(=O)c1ccccc1C(F)(F)F)c1cnc2ccccc2c1 [Example 123]"
  IC50, nM: 2200
- compound: "COc1ccc2oc(C(=O)NNS(=O)(=O)c3ccccc3)c(OC(C)C)c2c1"
  IC50, nM: 140

IC50 reported for this compound `O=C(NNS(=O)(=O)c1ccccc1)c1cc2cccc(Cl)c2o1` : 590

* * *

Reported log10 of IC50 is given for each of the following compounds.
target: UniProt P54687; test: In vitro coupled enzyme assay (glutamate dehydrogenase, NADH formation), human BCATc; settings: recombinant human BCATc, 37° C., 25 mM phosphate buffer pH 7.8; several values in a cell = repeat determinations; read-out: RhBCATc
Sequence (P54687 whole entry): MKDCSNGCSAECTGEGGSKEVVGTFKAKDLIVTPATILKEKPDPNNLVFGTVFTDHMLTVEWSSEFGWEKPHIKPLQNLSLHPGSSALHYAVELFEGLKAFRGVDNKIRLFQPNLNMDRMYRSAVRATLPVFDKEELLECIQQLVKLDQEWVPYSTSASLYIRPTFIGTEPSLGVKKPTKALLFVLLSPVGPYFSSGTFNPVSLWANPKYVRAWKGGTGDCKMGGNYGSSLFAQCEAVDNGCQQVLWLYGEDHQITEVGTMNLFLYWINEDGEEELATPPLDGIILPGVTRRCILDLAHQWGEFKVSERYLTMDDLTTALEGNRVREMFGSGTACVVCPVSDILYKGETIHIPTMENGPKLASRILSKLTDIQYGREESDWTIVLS
Reminder: these figures are log10 of reported IC50, in µM before transformation.

These recorded examples may help you get a feel for the data.
- compound: "Cc1ccc2oc(C(=O)NNS(=O)(=O)c3ccccc3C)cc2c1"
  experimental system: "UniProt P54687"
  log10 of IC50: 0.24
- compound: "CCCCCc1ccc(S(=O)(=O)NNC(=O)c2cnc3ccccc3c2)cc1"
  experimental system: "UniProt P54687"
  log10 of IC50: 1.76
- compound: "O=C(NNS(=O)(=O)c1ccccc1C(F)(F)F)c1cnc2ccccc2c1 [Example 123]"
  experimental system: "UniProt P54687"
  log10 of IC50: 1.06
- compound: "COc1cccc2cc(C(=O)NNS(=O)(=O)c3cccc(Cl)c3Cl)oc12"
  experimental system: "UniProt P54687"
  log10 of IC50: 1.36
- compound: "O=C(NNS(=O)(=O)c1ccccc1Cl)c1ccc2oc3ccccc3c2c1"
  experimental system: "UniProt P54687"
  log10 of IC50: 1.06

Note to self: log10 of IC50 of `Cc1c(Cl)cccc1S(=O)(=O)NNC(=O)c1ccc2oc3ccccc3c2c1` with UniProt P54687 was 0.83

Note to self: log10 of IC50 of `O=C(NNS(=O)(=O)c1cccc(Br)c1)c1cnc2ccccc2c1` with UniProt P54687 was 1.90

Note to self: log10 of IC50 of `O=C(NNS(=O)(=O)c1cc(Cl)cc(Cl)c1)c1cnc2ccccc2c1` with UniProt P54687 was 1.61

* * *

Biological target: rat BCAT cytosolic form (Rattus norvegicus, UniProt P54690)
Sequence (P54690 1-411): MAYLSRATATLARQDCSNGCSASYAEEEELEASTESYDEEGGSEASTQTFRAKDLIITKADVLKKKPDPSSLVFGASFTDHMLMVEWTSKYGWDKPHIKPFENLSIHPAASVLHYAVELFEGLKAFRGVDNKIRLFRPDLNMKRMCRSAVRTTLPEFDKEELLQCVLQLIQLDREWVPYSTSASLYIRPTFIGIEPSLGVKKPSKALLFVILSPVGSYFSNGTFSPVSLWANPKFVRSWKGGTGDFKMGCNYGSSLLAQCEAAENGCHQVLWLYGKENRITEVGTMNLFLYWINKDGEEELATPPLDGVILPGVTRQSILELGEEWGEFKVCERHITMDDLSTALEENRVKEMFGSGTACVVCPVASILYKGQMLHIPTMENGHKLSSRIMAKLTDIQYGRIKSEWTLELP
Experiment: In vitro coupled enzyme assay (glutamate dehydrogenase, NADH formation), rat BCATc
Conditions: recombinant rat BCATc, 37° C., 25 mM phosphate buffer pH 7.8; several values in a cell = repeat determinations; read-out: RrBCATc
Protocol: In vitro enzyme assay—human Branched Chain Amino Acid Aminotransferase cytosolic form (hBCATc) and mitochondrial form (hBCATm) as well as rat BCAT cytosolic form were assayed at 37° C. in 25 mM phosphate buffer pH 7.8. In addition, 2 mM DTT and 12.5 mM […] were added to the assay mixture. A coupling enzyme assay was used to monitor the production of glutamate. The formation of NADH from NAD+ at […] was followed on a 96-well plate Molecular Devices plate reader. […]
Reported pIC50 is given for each of the following compounds.
Kindly note that pIC50 refers to -log10 of the concentration in mol/L and answer with the value alone.

These recorded examples may help you get a feel for the data.
- structure smiles: "O=C(NNS(=O)(=O)c1ccc(F)c(F)c1)c1ccc2oc3ccccc3c2c1"
  pIC50: 5.46
- structure smiles: "Cc1cccc(S(=O)(=O)NNC(=O)c2cc3cc(C)ccc3o2)c1"
  pIC50: 6.60

pIC50 reported for this compound `Cc1ccc2oc(C(=O)NNS(=O)(=O)c3ccccc3)cc2c1` : 6.46

pIC50 reported for this compound `Cc1ccccc1S(=O)(=O)NNC(=O)c1cc2cc(Cl)cc(Cl)c2o1` : 6.06

pIC50 reported for this compound `O=C(NNS(=O)(=O)c1ccc(C(F)(F)F)cc1)c1ccc2ccccc2c1` : 4.58

pIC50 reported for this compound `O=C(NNS(=O)(=O)c1cccc(F)c1)c1cc2cc(Cl)ccc2o1` : 6.00

pIC50 reported for this compound `CCOc1cccc2cc(C(=O)NNS(=O)(=O)c3ccccc3)oc12` : 6.18

pIC50 reported for this compound `COc1cccc2cc(C(=O)NNS(=O)(=O)c3ccc(F)c(Cl)c3)oc12` : 5.48

pIC50 reported for this compound `Cc1ccc2oc(C(=O)NNS(=O)(=O)c3cccc(Cl)c3)cc2c1` : 6.01
